- Tested on: HCT-116
- run description: Growth inhibition of human HCT116 cells at 10 uM after 48 hrs by sulforhodamine B assay
- Type: functional
- setup conditions: HCT-116, 48 h, read-out: GI
Exercise: for every item that follows, state its recorded inhibition of growth at 10 µM.
Write the number in % without appending the unit.

[in] So what's the measured inhibition of growth at 10 µM for this one? `NS(=O)(=O)c1cnccc1N1CCN(c2ccccc2F)CC1`
[out] 3

[in] So what's the measured inhibition of growth at 10 µM for this one? `NS(=O)(=O)c1cnccc1N1CCN(c2ccc(Cl)cc2)CC1`
[out] 5

[in] So what's the measured inhibition of growth at 10 µM for this one? `Cc1ccc(C)c(N2CCN(c3ccncc3S(N)(=O)=O)CC2)c1`
[out] 9

[in] So what's the measured inhibition of growth at 10 µM for this one? `NS(=O)(=O)c1cnccc1N1CCC(Cc2ccccc2)CC1`
[out] 10

[in] So what's the measured inhibition of growth at 10 µM for this one? `NS(=O)(=O)c1cnccc1N1CCN(c2ccc(Cl)c(Cl)c2)CC1`
[out] 35

[in] So what's the measured inhibition of growth at 10 µM for this one? `CCc1cc(CC)n(-c2ccncc2S(N)(=O)=O)n1`
[out] 1

[in] So what's the measured inhibition of growth at 10 µM for this one? `NS(=O)(=O)c1cnccc1N1CCN(c2ccccn2)CC1`
[out] 1

[in] So what's the measured inhibition of growth at 10 µM for this one? `NS(=O)(=O)c1cnccc1N1CCN(c2ccccc2)CC1`
[out] 1

[in] So what's the measured inhibition of growth at 10 µM for this one? `NS(=O)(=O)c1cnccc1N1CCN(Cc2ccccc2)CC1`
[out] 6

----------
Exercise: for every item that follows, state its recorded inhibition of growth at 10 µM.
- System: SNB-19
- run description: Growth inhibition of human SNB19 cells at 10 uM after 48 hrs by sulforhodamine B assay
- Assay type: functional
- setup conditions: SNB-19, 48 h, read-out: GI
Write the number in % without appending the unit.

[in] So what's the measured inhibition of growth at 10 µM for this one? `NS(=O)(=O)c1cnccc1N1CCN(c2ccc(Cl)c(Cl)c2)CC1`
[out] 5

[in] So what's the measured inhibition of growth at 10 µM for this one? `NS(=O)(=O)c1cnccc1N1CCC(Cc2ccccc2)CC1`
[out] 2

[in] So what's the measured inhibition of growth at 10 µM for this one? `NS(=O)(=O)c1cnccc1N1CCN(c2ncccn2)CC1`
[out] 1

[in] So what's the measured inhibition of growth at 10 µM for this one? `NS(=O)(=O)c1cnccc1N1CCN(Cc2ccc3c(c2)OCO3)CC1`
[out] 3

[in] So what's the measured inhibition of growth at 10 µM for this one? `Cc1nn(-c2ccncc2S(N)(=O)=O)c(C)c1C`
[out] 1

----------
- Tested on: OVCAR-5
- run description: Growth inhibition of human OVCAR5 cells at 10 uM after 48 hrs by sulforhodamine B assay
- Type: functional
Active and inactive are the calls of the source. The rule behind the calls is not given here.
measurement name: growth inhibition (GI)

mol smiles | measurement name | endpoint result
NS(=O)(=O)c1cnccc1N1CCN(Cc2ccccc2)CC1 | growth inhibition (GI) | inactive
NS(=O)(=O)c1cnccc1N1CCN(c2ccc(Cl)cc2)CC1 | growth inhibition (GI) | inactive
NS(=O)(=O)c1cnccc1N1CCN(c2ccccc2)CC1 | growth inhibition (GI) | inactive
